- targetEntity: AmtB (Escherichia coli, UniProt P69681)
- Construct: pelB signal peptide (N, cleaved yes); 10x His-tag (N, cleaved yes); made in house; host or cells: Escherichia coli C41(DE3), pET15b
- Sequence (P69681 23-428): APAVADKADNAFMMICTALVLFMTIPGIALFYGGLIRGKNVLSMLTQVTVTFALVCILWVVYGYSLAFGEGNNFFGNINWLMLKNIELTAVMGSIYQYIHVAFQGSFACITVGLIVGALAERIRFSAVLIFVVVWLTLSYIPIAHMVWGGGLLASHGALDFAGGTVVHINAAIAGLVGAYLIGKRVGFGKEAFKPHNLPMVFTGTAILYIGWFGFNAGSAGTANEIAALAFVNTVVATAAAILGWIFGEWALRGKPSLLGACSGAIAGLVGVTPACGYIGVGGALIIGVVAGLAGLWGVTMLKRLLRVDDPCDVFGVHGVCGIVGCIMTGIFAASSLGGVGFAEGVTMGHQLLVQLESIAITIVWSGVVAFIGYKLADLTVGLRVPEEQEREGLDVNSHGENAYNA
- test: Native MS lipid titration, lipid binding to AmtB (equilibrium-coupled binding model)
- assayConditions: KD,AL1, first lipid binding to AmtB, 50 µM ADP, 298 K
- Protocol: A stock of ADP was prepared by dissolving the ammonium salt form of ADP in water followed by adjusting the pH with ammonium hydroxide to 7.0. Serial dilutions into MS buffer (200 mM ammonium acetate, 0.5% C8E4, and pH adjusted to 7.4 with ammonium hydroxide) supplemented with 5 mM BME was performed to prepare ADP at certain concentrations. Phospholipids were prepared as previously described. […] Phospholipid concentration was determined by phosphorus analysis.
# Kd values compiled below
# number only, unit µM dropped from output

molecule | targetEntity | Kd / µM
CCCCCCCCCCCCCC(=O)OC[C@H](COP(=O)(O)OCC(O)CO)OC(=O)CCCCCCCCCCCCC (stereo partly shown) [DMPG] | AmtB (Escherichia coli, UniProt P69681) | 6.78
CCCCCCCC/C=C\CCCCCCCC(=O)O[C@H](COC(=O)CCCCCCCCCCCCCCC)COP(=O)([O-])OCC[N+](C)(C)C [POPC] | AmtB (Escherichia coli, UniProt P69681) | 29.2
CCCCCCCCCCCCCCCC(=O)OC[C@H](COP(=O)(O)OCC(O)CO)OC(=O)CCCCCCCCCCCCCCC (stereo partly shown) [DPPG] | AmtB (Escherichia coli, UniProt P69681) | 18.5
CCCCCCCC/C=C\CCCCCCCC(=O)OC[C@H](COP(=O)(O)OCCN)OC(=O)CCCCCCC/C=C\CCCCCCCC [DOPE (cis)] | AmtB (Escherichia coli, UniProt P69681) | 15.1
CCCCCCCC/C=C/CCCCCCCC(=O)OC[C@H](COP(=O)(O)OCCN)OC(=O)CCCCCCC/C=C/CCCCCCCC [DOPE (trans)] | AmtB (Escherichia coli, UniProt P69681) | 29.7

Per the record, CCCCCCCCCCCC(=O)OC[C@H](COP(=O)(O)OCC(O)CO)OC(=O)CCCCCCCCCCC (stereo partly shown) [DLPG] has Kd of 22.5

Per the record, CCCCCCCC/C=C\CCCCCCCC(=O)O[C@H](COC(=O)CCCCCCCCCCCCCCC)COP(=O)(O)O [POPA] has Kd of 8.11
